- measurementTarget: RrJMJ12-C (Rosa rugosa, UniProt A0A2P6P5A5 1371-1493)
- Sequence (A0A2P6P5A5 entry or part of it): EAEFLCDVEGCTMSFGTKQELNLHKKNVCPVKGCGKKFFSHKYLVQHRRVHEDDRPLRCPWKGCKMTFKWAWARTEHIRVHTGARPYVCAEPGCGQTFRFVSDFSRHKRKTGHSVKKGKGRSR
- methodSummary: EMSA; unlabeled cold probe control; EMSA/Gel-Shift Kit (Beyotime) binding buffer, 30 min at 24 C; salt and pH not stated
- conditionDescription: protein: recombinant; tags: GST (pGEX4T-1); label: biotin; blunt
propertyMeasured: binding result

Some binders with recorded binding result:
| binder | propertyMeasured | reportedResult |
| --- | --- | --- |
| Probe5 (dsDNA) DNA 1: TAATTAGGTATCTCTGCTCGAGTTCTTTTG DNA 2: CAAAAGAACTCGAGCAGAGATACCTAATTA | binding result | binds |
| Probe1 (dsDNA) DNA 1: CTCTCTCTCTCTCTCTCTCTGTTTGCGCCAAAACA DNA 2: TGTTTTGGCGCAAACAGAGAGAGAGAGAGAGAGAG | binding result | binds |
| Probe3 (dsDNA) DNA 1: GTCTTATTTTTCTCTGTTTTCTTTTTTGGTATT DNA 2: AATACCAAAAAAGAAAACAGAGAAAAATAAGAC | binding result | binds |
| Probe4 (dsDNA) DNA 1: ATGACCCCCTTTTGCTCTGCTCTGTCTTTCTAGT DNA 2: ACTAGAAAGACAGAGCAGAGCAAAAGGGGGTCAT | binding result | binds |

Proceed to the following item.
Item: Probe2 (dsDNA) DNA 1: TTTCTCATGAACCCTCTGCTTTCTCATCTTGGGT DNA 2: ACCCAAGATGAGAAAGCAGAGGGTTCATGAGAAA | binding result: binds
